For each record, write down the corresponding IC50.
Species: Mus musculus
Experiment: Inhibitory concentration of compound on nitric oxide (NO) production in lipopolysaccharide activated mouse peritoneal macrophages
Assay type: functional
Details: read-out: IC50

What IC50 value was documented for this molecule, OC/C=C/c1ccc(O)cc1 ?
> 100 µM

What about C=CC(OC(C)=O)c1cccc(O)c1 (centres undefined) ?
> 100 µM

What do you get for C=CCc1ccc(OC)c(OC)c1 ?
> 100 µM

Queued: C=CC(O)c1ccc(O)cc1 (centres undefined)
> 100 µM

Now the molecule C=CC(OC(=O)CC)c1ccc(OC(=O)CC)cc1 (centres undefined)
30 µM

Now consider C=CCc1ccc(O)c(OC)c1 .
> 100 µM

Repeat with C=CC(OC)c1ccc(OC)cc1 (centres undefined)
> 100 µM

Also CC[C@H](OC(C)=O)c1ccccc1 , if possible.
> 100 µM

Likewise for O=C(/C=C/c1ccc(O)c(O)c1)OCCc1ccccc1 ?
15 µM

Now give it for CC(=O)OC/C=C/c1ccc(O)cc1 too.
72 µM

What do you get for C=C[C@H](OC(C)=O)c1ccc(OC(C)=O)c(OC)c1 ?
11 µM

Do the same for C=CCc1ccc(OC(C)=O)cc1 please
65 µM

Proceed to C=CC(O)c1ccc(OC)cc1 (centres undefined)
> 30 µM

Also, O=C(O)/C=C/c1ccccc1O please.
> 100 µM

Now consider C=CCc1ccc(O)cc1 .
> 100 µM

Repeat with CCC(O)c1ccc(O)cc1 (centres undefined)
> 100 µM

Next entry: COc1ccc(/C=C/C(=O)O)cc1OC
> 100 µM

// repeat for C=C[C@H](O)c1ccccc1 and report
> 100 µM

One more molecule: CCC(OC(C)=O)c1ccccc1OC(C)=O (centres undefined)
99 µM
